- Tested on: G(−) bacterial strains
- Procedure text: Dilution antimicrobial susceptibility tests (MIC, NCCLS agar dilution / broth dilution)
- Assay type: cell-based, Gram-negative organisms
- Condition: strain #32 Pseudomonas aeruginosa, Cf-R; unit assumed
Measured attribute: MIC (µg/mL)
Answer in µg/mL, number only, no unit symbol.

Past entries and their recorded results:
Compound	Measured attribute	Observed result
CC(O)C1C(=O)N2C(C(=O)O)=C(CN3CCC(C(=N)N)C3)C(C)C12 (stereo not drawn) [Compound 185a]	MIC	1
C[C@@H](O)C1C(=O)N2C(C(=O)[O-])=C(C[N+]3(C)CC[C@H](NC(=N)N)C3)[C@H](C)C12 (stereo partly drawn) [Compound 67]	MIC	2
C[C@@H](O)C1C(=O)N2C(C(=O)O)=C(CN3CC[C@H](NC(=O)C(F)(F)F)C3)[C@H](C)C12 (stereo partly drawn) [Compound 37]	MIC	8
C[C@@H](O)C1C(=O)N2C(C(=O)O)=C(CN3CC(NS(N)(=O)=O)C3)[C@H](C)C12 (stereo partly drawn) [Compound 58]	MIC	8
C[C@@H](O)C1C(=O)N2C(C(=O)O)=C(CN3CC(N)C3)[C@H](C)C12 (stereo partly drawn) [Compound 93]	MIC	4

Sample C[C@@H](O)[C@H]1C(=O)N2C(C(=O)O)=C(CN3CC(O)C(NC(=N)N)C3)[C@H](C)[C@H]12 (mixture of isomers) [Compound 176] — what was its MIC? 1

Sample CC(O)C1C(=O)N2C(C(=O)O)=C(CN3CC(O)C(C(=N)N)C3)C(C)C12 (mixture of isomers) [Compound 185b] — what was its MIC? 1

Sample C[C@@H](O)C1C(=O)N2C(C(=O)O)=C(CN3CC[C@H](C(=O)NS(N)(=O)=O)C3)[C@H](C)C12 (stereo partly drawn) [Compound 19] — what was its MIC? 4

Sample C[C@@H](O)C1C(=O)N2C(C(=O)O)=C(CN3CC(C(N)=O)C3)[C@H](C)C12 (stereo partly drawn) [Compound 49] — what was its MIC? 4

Sample C[C@@H](O)C1C(=O)N2C(C(=O)O)=C(CN3CC[C@H](CNC(=N)N)C3)[C@H](C)C12 (stereo partly drawn) [Compound 99] — what was its MIC? 4

Sample C[C@@H](O)C1C(=O)N2C(C(=O)O)=C(CN3CC[C@@H](C(N)=O)C3)[C@H](C)C12 (stereo partly drawn) [Compound 115] — what was its MIC? 4

Sample C[C@@H](O)C1C(=O)N2C(C(=O)O)=C(CN3CC[C@H](NC(=N)N)C3)[C@H](C)C12 (stereo partly drawn) [Compound 64] — what was its MIC? 2

* * *

- Tested on: G(−) bacterial strains
- Procedure text: Dilution antimicrobial susceptibility tests (MIC, NCCLS agar dilution / broth dilution)
- Assay type: cell-based, Gram-negative organisms
- Condition: strain #9 Enterobacter cloacae, Cf-R; unit assumed
- Protocol: The MIC (minimum inhibitory concentration) was determined by the NCCLS (National Committee for Clinical Laboratory Standards) methods 2000. Methods for dilution antimicrobial susceptibility testing for bacteria that growth aerobically (M7-A5, vol. 20, No. 2). The agar dilution method for determining antimicrobial susceptibility was carried out using Mueller-Hinton agar. […] The susceptibilities of streptococci were determined by Mueller-Hinton agar supplemented with 5% sheep blood. […]
// MIC lookup, one value per entry
Answer in µg/mL, number only, no unit symbol.

Past entries and their recorded results:
Compound	Measured attribute	Observed result
C[C@@H](O)C1C(=O)N2C(C(=O)O)=C(CN3CC[C@H](O)C3)[C@H](C)C12 (some centres unmarked) [Compound 146]	MIC	1
C[C@@H](O)C1C(=O)N2C(C(=O)O)=C(CN3CC[C@H](NC(=O)C(F)(F)F)C3)[C@H](C)C12 (some centres unmarked) [Compound 37]	MIC	1
C[C@@H](O)C1C(=O)N2C(C(=O)O)=C(CN3CC(C(N)=O)C3)[C@H](C)C12 (some centres unmarked) [Compound 49]	MIC	0.13

Sample C[C@@H](O)C1C(=O)N2C(C(=O)O)=C(CN3CC[C@@H](NC(=N)N)C3)[C@H](C)C12 (some centres unmarked) [Compound 156] — what was its MIC? 1

Sample C[C@@H](O)C1C(=O)N2C(C(=O)[O-])=C(C[N+]3(C)CC[C@H](NC(=N)N)C3)[C@H](C)C12 (some centres unmarked) [Compound 67] — what was its MIC? 0.25

* * *

// MIC lookup, one value per entry
- System: G(−) bacterial strains
- Procedure text: Dilution antimicrobial susceptibility tests (MIC, NCCLS agar dilution / broth dilution)
- Format: cell-based, Gram-negative organisms
- Condition: strain #7 Enterobacter aerogenes; unit assumed
Answer in µg/mL, number only, no unit symbol.

Past entries and their recorded results:
Compound	Unit descriptor	Observed result
CC(O)C1C(=O)N2C(C(=O)O)=C(CN3CC(O)C(C(=N)N)C3)C(C)C12 (mixture of isomers) [Compound 185b]	µg/mL	0.25
C[C@@H](O)C1C(=O)N2C(C(=O)O)=C(CN3CC(NS(N)(=O)=O)C3)[C@H](C)C12 (some centres unmarked) [Compound 58]	µg/mL	0.5
C[C@@H](O)C1C(=O)N2C(C(=O)O)=C(CN3CC[C@H](C(=O)N(C)C)C3)[C@H](C)C12 (some centres unmarked) [Compound 120]	µg/mL	2
C[C@@H](O)C1C(=O)N2C(C(=O)O)=C(CN3CC(N)C3)[C@H](C)C12 (some centres unmarked) [Compound 93]	µg/mL	2

Now look at this entry.
State its MIC on G(−) bacterial strains: C[C@@H](O)C1C(=O)N2C(C(=O)O)=C(CN3CCC(NC(=O)CNC(=N)N)C3)[C@H](C)C12 (some centres unmarked) [Compound 167] 4

* * *

- System: G(−) bacterial strains
- Procedure text: Dilution antimicrobial susceptibility tests (MIC, NCCLS agar dilution / broth dilution)
- Type: cell-based, Gram-negative organisms
- Condition: strain #25 Shigella dysenteriae; unit assumed
Measured attribute: MIC (µg/mL)
Answer in µg/mL, number only, no unit symbol.

Past entries and their recorded results:
Compound	MIC / µg/mL
CC(=O)N[C@H]1CCN(CC2=C(C(=O)O)N3C(=O)C([C@@H](C)O)C3[C@H]2C)C1 (some centres unmarked)	1
CC(=O)NC(=N)N[C@H]1CCN(CC2=C(C(=O)O)N3C(=O)C([C@@H](C)O)C3[C@H]2C)C1 (some centres unmarked)	0.5
C[C@@H](O)C1C(=O)N2C(C(=O)O)=C(CN3CC[C@H](NC=N)C3)[C@H](C)C12 (some centres unmarked)	0.5
C[C@@H](O)C1C(=O)N2C(C(=O)[O-])=C(C[N+]3(C)CC[C@H](NC(=N)N)C3)[C@H](C)C12 (some centres unmarked)	0.25

Now look at this entry.
Sample C[C@@H](O)C1C(=O)N2C(C(=O)O)=C(CN3CC[C@H](NC(=N)NS(C)(=O)=O)C3)[C@H](C)C12 (some centres unmarked) — what was its MIC? 1

* * *

- Test system: G(−) bacterial strains
- Procedure text: Dilution antimicrobial susceptibility tests (MIC, NCCLS agar dilution / broth dilution)
- Format: cell-based, Gram-negative organisms
- Condition: strain #7 Enterobacter aerogenes; unit assumed
Measured attribute: MIC (µg/mL)
Answer in µg/mL, number only, no unit symbol.

Past entries and their recorded results:
Molecule	Measured attribute	Unit descriptor	Observed result
C[C@@H](O)C1C(=O)N2C(C(=O)O)=C(CN3CC[C@H](NC(N)=O)C3)[C@H](C)C12 (stereo partly shown) [Compound 78]	MIC	µg/mL	2
C[C@@H](O)C1C(=O)N2C(C(=O)O)=C(CN3CC[C@H](C(=O)NS(N)(=O)=O)C3)[C@H](C)C12 (stereo partly shown) [Compound 19]	MIC	µg/mL	1

Now look at this entry.
Sample C[C@@H](O)C1C(=O)N2C(C(=O)O)=C(CN3CC[C@H](O)C3)[C@H](C)C12 (stereo partly shown) [Compound 146] — what was its MIC? 2

* * *

- Tested on: G(−) bacterial strains
- Procedure text: Dilution antimicrobial susceptibility tests (MIC, NCCLS agar dilution / broth dilution)
- Type: cell-based, Gram-negative organisms
- Condition: strain #9 Enterobacter cloacae, Cf-R; unit assumed
// MIC lookup, one value per entry
Answer in µg/mL, number only, no unit symbol.

Past entries and their recorded results:
Compound	MIC / µg/mL
C[C@@H](O)C1C(=O)N2C(C(=O)O)=C(CN3CC[C@H](NC(=N)NS(C)(=O)=O)C3)[C@H](C)C12 (stereo partly drawn)	2
C[C@@H](O)C1C(=O)N2C(C(=O)O)=C(CN3CC[C@H](NC(N)=O)C3)[C@H](C)C12 (stereo partly drawn)	1

Now look at this entry.
Sample C[C@@H](O)C1C(=O)N2C(C(=O)O)=C(CN3CC[C@H](C(N)=O)C3)[C@H](C)C12 (stereo partly drawn) — what was its MIC? 0.25

* * *

- Tested on: G(−) bacterial strains
- Procedure text: Dilution antimicrobial susceptibility tests (MIC, NCCLS agar dilution / broth dilution)
- Format: cell-based, Gram-negative organisms
- Condition: strain #8 Enterobacter cloacae, Cf-R, B+; unit assumed
MIC under 0.5 µg/mL gets met, anything at or over 0.5 µg/mL gets not met.

Before answering, review these 3 worked examples.
Compound	Assigned class
CC(=O)NC(=N)N[C@H]1CCN(CC2=C(C(=O)O)N3C(=O)C([C@@H](C)O)C3[C@H]2C)C1 (stereo partly drawn)	not met
C[C@@H](O)C1C(=O)N2C(C(=O)O)=C(CN3CCC(NC(=O)CNC(=N)N)C3)[C@H](C)C12 (stereo partly drawn)	not met
CN[C@H]1CCN(CC2=C(C(=O)O)N3C(=O)C([C@@H](C)O)C3[C@H]2C)C1 (stereo partly drawn)	met

Now examine the next entry.
Does this compound meet the criterion MIC < 0.5 µg/mL? C[C@@H](O)C1C(=O)N2C(C(=O)O)=C(CN3CC[C@H](O)C3)[C@H](C)C12 (stereo partly drawn) met
